# Read-out: succinate dehydrogenase complex iron sulfur subunit B (SDHB), SDHB (gene 6390)
# experiment: LTEA_HepaRG_SDHB: Life Technologies and Expression Analysis (LTEA) Assay for succinate dehydrogenase complex iron sulfur subunit B (SDHB) using HepaRG (AID 2283528)
# test_settings: mRNA level, 48 h; actives raise or lower the signal
Calls of active or inactive are those of the source. Rule for the calls: active = hit-call score of the fitted dose curve at least 0.9, where 1 is the maximum; inactive = score below 0.9.
reported_metric: AC50

# test_smiles, meas_value
measured = [
    ("O=NO", "inactive"),
    ("CN(C)C(=O)NC1(c2ccccc2)CCN(CC[C@@]2(c3ccc(F)c(F)c3)CN(C(=O)c3ccccc3)CCO2)CC1", "inactive"),
    ("CCN(CC)CCOc1ccc(C(=C(Cl)c2ccccc2)c2ccccc2)cc1", "78.1 µM (active)"),
    ("C/C=C/c1ccc(OC)cc1", "inactive"),
]
